Values from patent US9693556B2

- System: Echinochloa crus-galli (ECHCG)
- Experimental details: Post-emergence herbicidal glasshouse test on Echinochloa crus-galli
- Assay type: in vivo
- Condition details: post-emergence application, Echinochloa crus-galli, damage score 1-5
POST Application ECHCG values, listed per item

# Chemical structure, POST Application ECHCG
data = [
    ("CCCCn1c(C2CC2)ncc(-c2cnn(C)c(=O)c2O)c1=O", "5 (5=80-100% damage)"),
    ("Cn1ncc(-c2cnc(-c3cccc(F)c3)n(C3CCCCC3)c2=O)c(O)c1=O", "5 (5=80-100% damage)"),
    ("Cc1ccc(Cl)cc1-n1c(-c2cccc(F)c2)ncc(-c2cnn(C)c(=O)c2O)c1=O", "4 (4=60-79% damage)"),
    ("CCCn1c(-c2cccc(Cl)c2)ncc(-c2cnn(C)c(=O)c2O)c1=O", "2 (2=20-39% damage)"),
]
